Each recorded value in this set is attributed to patent US8067447B2.

target: human glucocorticoid receptor (Homo sapiens); construct: purified human recombinant full-length glucocorticoid receptor (2 nM); purchased Invitrogen Part #2893; assay: Glucocorticoid Receptor Binding Assay (I), fluorescence polarization competitor kit (Fluormone GS Red); conditions: purified human recombinant full-length GR 2 nM, 1 nM Fluormone GS Red, FP; read-out: GR (Ki, nM) (GR Binding Assay (I))
Sequence (P04150 whole entry): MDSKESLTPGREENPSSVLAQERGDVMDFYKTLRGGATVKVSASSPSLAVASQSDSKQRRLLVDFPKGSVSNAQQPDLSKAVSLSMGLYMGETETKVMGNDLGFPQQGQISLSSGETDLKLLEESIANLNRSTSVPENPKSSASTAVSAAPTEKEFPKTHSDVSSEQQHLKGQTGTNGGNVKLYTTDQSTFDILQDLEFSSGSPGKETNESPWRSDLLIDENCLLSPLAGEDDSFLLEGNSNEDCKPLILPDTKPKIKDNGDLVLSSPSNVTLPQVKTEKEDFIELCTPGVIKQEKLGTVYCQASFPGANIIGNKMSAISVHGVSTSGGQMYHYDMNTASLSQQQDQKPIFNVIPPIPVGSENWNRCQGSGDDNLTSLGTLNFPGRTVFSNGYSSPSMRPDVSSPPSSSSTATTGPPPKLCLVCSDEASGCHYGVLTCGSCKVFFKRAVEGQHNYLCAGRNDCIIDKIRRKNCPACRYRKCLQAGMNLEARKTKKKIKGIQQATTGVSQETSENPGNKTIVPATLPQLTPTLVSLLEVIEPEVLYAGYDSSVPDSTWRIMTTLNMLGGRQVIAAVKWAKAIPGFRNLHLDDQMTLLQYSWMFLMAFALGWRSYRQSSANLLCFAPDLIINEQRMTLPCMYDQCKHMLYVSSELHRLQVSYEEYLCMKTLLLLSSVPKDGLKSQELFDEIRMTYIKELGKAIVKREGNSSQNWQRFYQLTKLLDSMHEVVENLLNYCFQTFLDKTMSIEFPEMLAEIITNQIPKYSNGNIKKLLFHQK
assay readout: Ki (nM)
The reply should contain only the number, in nM.

Before answering, review these 5 worked examples.
INSERT INTO measurements (compound, reported) VALUES
  ('CCC(c1ccc2c(cnn2-c2ccc(F)cc2)c1)C(C)(C)C(=O)Nc1nccs1 (centres unmarked)', 9.8),
  ('CC(C)(C(=O)Nc1nccs1)C(c1ccccc1)c1ccc2[nH]c(-c3nccs3)cc2c1 (centres unmarked)', 57),
  ('CC(C)(C(=O)Nc1n[nH]cc1C#N)C(c1ccccc1)c1ccc2c(cnn2-c2ccc(F)cc2)c1 (centres unmarked)', 163),
  ('CC(C)(C(=O)Nc1nncs1)C(c1ccccc1)c1ccc2[nH]c(-c3nccs3)cc2c1 (centres unmarked)', 95),
  ('CC(C)(C(=O)Nc1nccs1)C(c1ccccc1)c1ccc2[nH]c(-c3ccccn3)cc2c1 (single isomer, unassigned) [111-enant B]', 25);

Continue with the next compound.
Q: # input compound: CCOC(=O)c1nnc(NC(=O)C(C)(C)C(c2ccccc2)c2ccc3c(cnn3-c3ccc(F)cc3)c2)s1 (centres unmarked) ; wanted: its Ki
Result: 227
